Listed below: growth inhibition values for each entry.
Assay: NCI Yeast Anticancer Drug Screen. Data for the mec2-1 strain (AID 157)
Conditions: S. cerevisiae mec2-1 strain, at 50.0 µM, active compounds read high
Procedure: Growth inhibition of yeast strains with defined genetic alterations is measured as a screen for potential anti-cancer activity. Selected strains with alterations in DNA damage repair or cell cycle control were exposed to compounds and growth inhibition was measured relative to vehicle treated controls. The strain used in this assay is mec2-1
The panel holds about 79,000 compounds, 15% with a hit somewhere; the sample as a whole holds those more often.

{"columns": ["COMPOUND", "UNITS TEXT", "growth inhibition"],
 "data": [
  ["O=S(=O)(Cc1ccccc1)C(I)c1ccccc1 (stereo unspecified)", "%", 55.9],
  ["ClNc1nc(NCl)nc(NCl)n1", "%", -25.8],
  ["CCN(CC)/[N+]([O-])=N/OCC(C)O (stereo unspecified)", "%", -3.45],
  ["CCCCCCCCCCCCOP(=O)(O)OP(=O)(O)OCC1OC(n2cc(C)c(=O)[nH]c2=O)CC1O (stereo unspecified)", "%", 13.9],
  ["COC1(OC)OC(c2ccc([N+](=O)[O-])cc2)=C(c2ccc([N+](=O)[O-])cc2)OC1(OC)OC", "%", 49.9],
  ["O=[N+]([O-])c1cccc(Cc2nncc3ccccc23)c1", "%", 35.9],
  ["CCCCCCCCOC(=O)c1cc([N+](=O)[O-])c(Sc2ncnc3nc[nH]c23)c([N+](=O)[O-])c1", "%", 30],
  ["COc1cc(C2CC=CCC2C(=O)O)cc(OC)c1OC (stereo unspecified)", "%", 2.4],
  ["Cc1cccc(C2ON=C(c3ccccc3)N2C23CC4CC(CC(C4)C2)C3)c1 (stereo unspecified)", "%", -0.35],
  ["CC(=O)Nc1ccc(C(=O)NN2C(=O)CSC2c2ccc([N+](=O)[O-])cc2)cc1 (stereo unspecified)", "%", -39.8],
  ["Cc1c(S)cnc2ccccc12", "%", -6.25]
]}

Every entry's value here was drawn from PubChem BioAssay (NCI).
